Known GI50 of a selection of compounds
Tested on: OVCAR-5
PROTOCOL DETAILS: NCI tumour cell line growth inhibition, 48 h
Activity calls are given as the source filed them. No stated cut-off is given here; in the data, active = GI50 up to about 1.1 µM and inactive = higher. *1 amine or outer side, *2 acyl side, *3 side chain or, on linkers, in order; H or OH if unused. Where a SMILES comes first, the peptide text is derived from it. [ ]: non-standard residue; d: D form. The star is where a group is joined. ξ: configuration not given here. X53 = CC(C)C[C@H](N[*:1])C1=N[C@H](C(=O)[*:2])CS1; Ile(3ξ) = CCC(C)[C@H](N)C(=O)O; Allyl(1,1-Me2) = C=CC(C)(C)*
ATTRIBUTE MEASURED: GI50

| COMPOUND | SUBJECT OF TEST | RESULT VALUE |
| --- | --- | --- |
| O=CN1CCN(C=S)CC1 | OVCAR-5 | > 100 µM (inactive) |
| COc1cc(CCc2ccncc2)cc(OC)c1OC | OVCAR-5 | > 100 µM (inactive) |
| CN(C)C1C(O)=C(C(=O)NCN2CCCC2)C(=O)C2(O)C(O)=C3C(=O)c4c(O)cccc4C(C)(O)C3CC12 (centres undefined) | OVCAR-5 | > 100 µM (inactive) |
| Brc1ccc(-c2[nH]c3ccccc3c2/N=N\c2ccccc2)cc1 | OVCAR-5 | 18.7 µM (inactive) |
| C/C(=C\c1ccccc1)C(=O)NCc1ccc(C(=O)NCCc2c[nH]c3ccccc23)cc1 | OVCAR-5 | > 100 µM (inactive) |
| Cc1[nH]c2ccccc2c1/C=N/c1ccc(/N=C/c2c(C)[nH]c3ccccc23)cc1 | OVCAR-5 | > 100 µM (inactive) |
| CSC(=O)/C=C1\SS/C(=C\C(=O)SC)S1 | OVCAR-5 | 3.98 µM (inactive) |
| S=C(/N=c1/sc(Nc2ccccc2)nc2sc3c(c12)CCCC3)Nc1ccccc1 | OVCAR-5 | > 62.5 µM (inactive) |
| C(=N\Nc1ccc(-c2nc3ccccc3[nH]2)cc1)/c1c(-c2ccc(Cc3ccccc3)cc2)[nH]c2ccccc12 | OVCAR-5 | 26.1 µM (inactive) |
| COc1ccc(/C(Cl)=C(\C#N)c2ccc(OC)c(OC)c2)cc1OC | OVCAR-5 | > 100 µM (inactive) |
| Cc1c(-c2ccccc2)c(=O)oc2ccc(Cl)cc12 | OVCAR-5 | > 100 µM (inactive) |
| COc1ccc2c[n+](C)c3c4cc(OC)c(OC)cc4ccc3c2c1 | OVCAR-5 | 8.63 µM (inactive) |
| COc1cc(C(=O)N(C(=S)OCc2ccccn2)c2ccccc2)cc(OC)c1OC | OVCAR-5 | 49.2 µM (inactive) |
| C=CC(C)(C)OC[C@@H]1NC(=O)CNC(=O)[C@@H]2CCCN2C(=O)[C@H](C(C)CC)NC(=O)[C@@H]2CSC(=N2)[C@H](CC(C)C)NC1=O (some centres undefined) (cyclo(GS(Allyl(1,1-Me2))[X53][Ile(3ξ)]P)) | OVCAR-5 | > 100 µM (inactive) |
| CN(C)c1ccc(/C=c2\c3cc([N+](=O)[O-])ccc3n3c2cc(-c2ccccc2)[n+]3C)cc1 | OVCAR-5 | 3.63 µM (inactive) |
| C/C(CC(=O)Nc1ccc([N+](=O)[O-])cc1)=N\NC(N)=O | OVCAR-5 | > 100 µM (inactive) |
| COc1ccc(C(=O)/C=C/c2ccc(OCC(=O)O)cc2)cc1 | OVCAR-5 | > 100 µM (inactive) |
| COC(OC)[C@@H]1OC[C@H](n2cnc3c(N)ncnc32)[C@H]1O | OVCAR-5 | > 100 µM (inactive) |
| CCOC(=O)Cc1csc(Nc2ccccc2[N+](=O)[O-])n1 | OVCAR-5 | > 100 µM (inactive) |
| COc1cc(-c2n[nH]cc2CCCC(=O)Nc2ccccc2[N+](=O)[O-])ccc1O | OVCAR-5 | > 100 µM (inactive) |
| COc1ccc2nc(-n3c(/C=C/c4ccccc4O)nc4ccccc4c3=O)sc2c1 | OVCAR-5 | > 100 µM (inactive) |
| Fc1ccc(C(OCCN2CC3CCC(C2)N3CCCc2ccccc2)c2ccc(F)cc2)cc1 | OVCAR-5 | 10.6 µM (inactive) |
| COc1cc2c(cc1OC)CCc1cc(OC)c(OC)cc1CC2 | OVCAR-5 | > 100 µM (inactive) |
| C=C=C(Sc1ccccc1)C(C)(C)O | OVCAR-5 | > 100 µM (inactive) |
| COc1cc(/C=C/C(=O)C2(C(=O)/C=C/c3cc(OC)c(OC)c(OC)c3)CCCCC2)cc(OC)c1OC | OVCAR-5 | 94.2 µM (inactive) |
| O=C(Cc1ccccc1)N/N=C(/c1nc2ccc([N+](=O)[O-])cc2nc1O)C(O)c1ccc(C(O)/C(=N/NC(=O)Cc2ccccc2)c2nc3ccc([N+](=O)[O-])cc3nc2O)cc1 (centres undefined) | OVCAR-5 | 40.4 µM (inactive) |
| Clc1ccc(/C=N/c2ccc3c(c2)Cc2ccccc2-3)c(Cl)c1 | OVCAR-5 | > 100 µM (inactive) |
| CCOC(=O)c1c(CN2CCCC2)n(-c2ccccc2)c2cc(Br)c(OC)cc12 | OVCAR-5 | 19.5 µM (inactive) |
| CC1(C)N=c2c(ncn2CCCO)=C(C(N)=O)N1 | OVCAR-5 | > 100 µM (inactive) |
| CNC(=O)C1(C#N)C(c2ccccc2)C(C#N)(C(=O)NC)C1c1ccccc1 (centres undefined) | OVCAR-5 | > 100 µM (inactive) |
| CC(=O)Oc1ccc2c3c1[C@H]1O[C@H]1c1cccc(c1-3)[C@@H]1O[C@H]21 | OVCAR-5 | 14.8 µM (inactive) |
| COC(=O)Cc1c(/C=C/C(C)(C)n2cnc(CCN3C(=O)CCC3=O)c2)[nH]c2ccccc12 | OVCAR-5 | > 100 µM (inactive) |
| C1=N\CCN2CCN(CC/N=C\c3ccccc3OCc3cccc(n3)COc3ccccc3/1)CC2 | OVCAR-5 | 9.18 µM (inactive) |
| COC1CC(n2cc(F)c(N)nc2=O)OC1CO (centres undefined) | OVCAR-5 | > 100 µM (inactive) |
| CCOC(=O)/C(Cl)=C(\C)Nc1nc2c(ccc3ccccc32)s1 | OVCAR-5 | 81.1 µM (inactive) |
| C=CCn1c(-c2ccc(/N=N/Nc3ccc(-c4n[nH]c(=S)n4CC=C)cc3)cc2)n[nH]c1=S | OVCAR-5 | 28 µM (inactive) |
| CC[C@]1(O)CC(OC2CC(N(C)C)C(O)C(C)O2)c2c(cc3c(c2O)C(=O)c2c(O)cccc2C3=O)[C@@H]1C(=O)OC (some centres undefined) | OVCAR-5 | 0.718 µM (active) |
| O=[N+]([O-])C(=C1c2ccccc2-c2ccccc21)[N+](=O)[O-] | OVCAR-5 | 91.2 µM (inactive) |
| CCOC(=O)c1c(N)nn2c1cc1cccccc12 | OVCAR-5 | 59.8 µM (inactive) |
